- Test system: SW-620 colon
- assay_protocol: NCI-60 one-dose screen, 48 h
- measurement_setup: 10 µM unless noted
- Protocol: Growth inhibition of the SW-620 human tumor cell line is measured as a screen for anti-cancer activity. Cells are grown in 96 well plates and exposed to the test compound for 48 hours. Compounds are tested at a single concentration, which is 10^-5 M for most compounds. The reported endpoint is percent growth (GI% or GIPRCNT), where numbers from 0 - 100% represent growth inhibition, and numbers from -100% - 0 represent cell death. For example, a value of 40 represents 60% growth inhibition. […]
The panel holds about 83,000 compounds, 20% with a hit somewhere; the sample as a whole holds those more often. The source made the active and inactive calls. Rule for the calls: active = growth percent below 10; inactive = the rest.
Assign a class; possible classes are active, inactive

Hi, do you know how COc1cc(Br)c(-c2nc(-c3ccccc3)c(-c3ccccc3)n2Cc2ccccc2)cc1OC came out in this test?
inactive

Hi, do you know how COc1ccccc1P(c1ccccc1OC)c1ccccc1OC came out in this test?
inactive

Hi, do you know how CN(C)CC/C=C1\c2ccccc2Sc2ccc(Cl)cc21 came out in this test?
inactive

Hi, do you know how C=C1C(=O)O[C@H]2[C@H]1CC/C(COC(=O)c1ccc(C#N)cc1)=C\CC[C@@]1(C)O[C@@H]21 came out in this test?
active

Hi, do you know how NS(=O)(=O)c1ccc(-n2nc(-c3ccc(Cl)cc3)ccc2=O)cc1 came out in this test?
inactive

Hi, do you know how Fc1ccc(Nc2ncnc3ccc(-c4cn[nH]c4)cc23)cc1Cl came out in this test?
inactive

---

- Test system: HOP-62 NSCLC
- assay_protocol: NCI-60 one-dose screen, 48 h (100 = growth as untreated, 0 = no growth, -100 = all killed)
- measurement_setup: 10 µM unless noted
This is part of a sample that, as a whole, favours compounds with a hit. Of some 83,000 tested, about 20% had one in any assay.
measure_name: growth (%)
Only the number, expressed in %, is required.

Example cases with answers are listed next.
CCOc1ccccc1C(=O)N1CCN(c2cc(Cl)cc(Cl)c2)CC1	27.1
COc1ccc(/C=C/C(=O)c2ccc(Oc3ncnc4ccccc34)cc2)cc1OC	87.7
CCOc1cccc(Nc2nc(N)nc3[nH]c4ccc(O)cc4c23)c1	61.7
CC(C)C1(C(C)C)NC(=O)NC1=O	96.6
CC(=O)N1N=C(CCC(=O)c2nc3ccc([N+](=O)[O-])cc3[nH]2)OC1c1ccc(O)cc1 (stereo not given)	91.2
C=C1C(=O)O[C@H]2[C@H]1CC/C(C(=O)Nc1ccc(OC)c(C(N)=O)c1O)=C\CC[C@@]1(C)O[C@@H]21	85.1
Nc1ncnc2c1c(-c1ccc(Oc3ccccc3)cc1)nn2C[C@@H]1SSC[C@H]1O	37.6
COc1ccc2c(c1)nnc1c3cccnc3[nH]c21	6.44
O=C1C(Cl)=C(Nc2ccccc2)C(=O)C(Cl)=C1Nc1ccccc1	113
COc1ccccc1C(OC(C)=O)OC(C)=O	104

Field request: growth | item: CC(C)(CCN=C(N)Nc1ccccn1)c1ccc(C(F)(F)F)cc1
50.4

Field request: growth | item: [2H]c1nc(Nc2ncc(F)c(-c3cc(F)c4nc(C)n(C(C)C)c4c3)n2)c([2H])c([2H])c1CN1CCN(CC)CC1
51.2

Field request: growth | item: COC(OC)C1(c2ccccc2)NC(=O)NC1=O (stereo not given)
103

Field request: growth | item: CC[C@H]1[C@@H]2C=C[C@@H]3[C@H]4C/C=C\C(=O)NCCC[C@@H]5NC(=O)/C(=C(O)/C=C/[C@@H]4C[C@@H]3[C@H]2C[C@H]1C)C5=O
-49.9

Field request: growth | item: C[C@H]1C=C(C[C@@H](O)CC#CC#CCCCCC[C@@H](O)[C@H]2CCC(=O)O2)C(=O)O1
94.5

Field request: growth | item: O=C(O)c1cccc(S(=O)(=O)c2ccccc2)c1
103

Field request: growth | item: COc1ccccc1S(=O)(=O)Nc1ccc2c3c(cc(-c4cnn(C5CC5)c4)nc13)C(=O)N2C
50.7

Field request: growth | item: COc1cccc(/C=N/C(=S)NC2(C)C3CCC(C3)C2(C)C)c1O (stereo not given)
92

Field request: growth | item: O=C1c2ccccc2OC=C(c2ccccc2)N1CCCCNc1ccc(F)cc1
85.1

Field request: growth | item: C=C1C(=O)O[C@H]2[C@H]1CC/C(COC(=O)OC/C1=C/CC[C@@]3(C)O[C@H]3[C@H]3OC(=O)[C@@H](CN(C)C)[C@@H]3CC1)=C\CC[C@@]1(C)O[C@@H]21
89.2
